The listing below reports MIC for molecules tested on Streptococcus pyogenes 930.

Tell me the measured MIC of CC[C@H]1OC(=O)[C@H](C)[C@@H](O[C@H]2C[C@@](C)(OC)[C@@H](O)[C@H](C)O2)[C@H](C)[C@@H](O[C@@H]2O[C@H](C)C[C@H](N(C)C)[C@H]2O)[C@@]2(C)C[C@@H](C)C(=O)[C@H](C)[C@H]3N(CC(O)CCCCO2)C(=O)O[C@]13C (stereo partly drawn) [Example 22] , please.
> 100 µg/mL

# iterate: CC[C@H]1OC(=O)[C@H](C)[C@@H](O[C@H]2C[C@@](C)(OC)[C@@H](O)[C@H](C)O2)[C@H](C)[C@@H](O[C@@H]2O[C@H](C)C[C@H](N(C)C)[C@H]2O)[C@@]2(C)C[C@@H](C)C(=O)[C@H](C)[C@H]3N(CCNC(=O)c4ccccc4CC=CCO2)C(=O)O[C@]13C [Example 24]
> 100 µg/mL

Another molecule to check: CC[C@H]1OC(=O)[C@H](C)[C@@H](O[C@H]2C[C@@](C)(OC)[C@@H](O)[C@H](C)O2)[C@H](C)[C@@H](O[C@@H]2O[C@H](C)C[C@H](N(C)C)[C@H]2O)[C@@]2(C)C[C@@H](C)C(=O)[C@H](C)[C@H]3N(CC=CCO2)C(=O)O[C@]13C [Example 14]
> 100 µg/mL
